Test system: MCF-7/PAX spheroids
Assay: Cytotoxic activity against 3D models, CellTiter-Glo 3D
Assay type: cell-based
Settings: Homo sapiens, MCF7; 72 h old spheroids, 72 h incubation, n=4
Protocol: The ability of selenoesters to affect the formation of spheroids was described in the previous section. Subsequently, we have tested the cytotoxic potential of selenoesters in preformed 72 h old spheroids. Both sensitive and resistant mature breast and ovarian cells spheroids were incubated in the presence of selenoesters in a concentration range 1.6–100 µM. […] A safe concentration of selenoesters has been established based on the results of sensitization of drug-resistant 3D models. […]
Endpoint: pIC50
Expect pIC50 as a plain number equal to -log10 of the molar concentration.

[Q] Annotate the compound CC(=O)C[Se]C(=O)c1ccccc1C(F)(F)F with its measured pIC50.
[A] 5.32

[Q] Supply reported pIC50 belonging to this compound: CC(=O)C[Se]C(=O)c1ccc(C(C)(C)C)cc1
[A] 5.12

[Q] Please report pIC50 for the following compound: CC(=O)C[Se]C(=O)c1ccc(Br)cc1
[A] 5.40
